Would you kindly list log2 ratio of Biotin-Ahx-Ub-VS probe labelling for each of these molecules?
# Target or system: EIF3F (UniProt O00303)
# Sequence (O00303 whole entry, the tested form may be a part): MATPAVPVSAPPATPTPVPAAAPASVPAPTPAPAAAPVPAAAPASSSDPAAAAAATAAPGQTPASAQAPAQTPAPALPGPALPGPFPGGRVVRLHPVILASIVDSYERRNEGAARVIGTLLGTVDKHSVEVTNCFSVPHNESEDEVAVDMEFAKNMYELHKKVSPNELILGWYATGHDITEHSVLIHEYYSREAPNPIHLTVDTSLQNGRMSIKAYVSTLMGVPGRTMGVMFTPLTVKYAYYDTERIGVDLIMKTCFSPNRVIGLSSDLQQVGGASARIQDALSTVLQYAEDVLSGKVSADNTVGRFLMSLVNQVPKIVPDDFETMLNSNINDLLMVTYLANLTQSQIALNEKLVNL
# Assay: log2 ratio of Biotin-Ahx-Ub-VS probe labelling (fragment/DMSO); higher = less target engagement (more negative = stronger competition), active = hit call of the paper (q ≤ 0.05, log2 ratio ≤ -1)
# Measurement context: compound concentration: 200 uM; treatment time: 3 h

For O=C(CCl)N1CCN(C(=O)N2CCCCC2)CC1 , what is its reported log2 ratio of Biotin-Ahx-Ub-VS probe labelling?
-0.507 (inactive)

Which log2 ratio of Biotin-Ahx-Ub-VS probe labelling reading was recorded for the molecule O=C(CCl)Nc1cc2c(cc1Cl)OCCCO2 ?
-0.197 (inactive)

Entry O=C(CCl)N1CCN2C(=O)CCC2C1 (stereo unspecified) has what log2 ratio of Biotin-Ahx-Ub-VS probe labelling?
0.0885 (inactive)

# query: log2 ratio of Biotin-Ahx-Ub-VS probe labelling of entry O=C(CCl)NC(Cn1ccccc1=O)c1ccccc1 (stereo unspecified)
0.0892 (inactive)

Please give the measured log2 ratio of Biotin-Ahx-Ub-VS probe labelling for this molecule: O=C(CCl)NCC(=O)N1CCCC1
-0.198 (inactive)

Would you mind telling me what log2 ratio of Biotin-Ahx-Ub-VS probe labelling value was observed for O=C(CCl)Nc1ccc(F)cc1F ?
-0.155 (inactive)

What does the data say about its log2 ratio of Biotin-Ahx-Ub-VS probe labelling? Entry: O=C(CCl)NCCC1=CCCCC1
-0.0695 (inactive)

I'd like to know its log2 ratio of Biotin-Ahx-Ub-VS probe labelling. The molecule in question is Cc1noc(C)c1CNC(=O)CCl
-0.561 (inactive)

log2 ratio of Biotin-Ahx-Ub-VS probe labelling for Cc1ccc(CN(CCO)C(=O)CCl)cc1 ?
0.0155 (inactive)

Item under review: O=C(CCl)N1CCOC(CCc2ccccc2)C1 (stereo unspecified) . Reported log2 ratio of Biotin-Ahx-Ub-VS probe labelling?
-0.348 (inactive)

Please give the measured log2 ratio of Biotin-Ahx-Ub-VS probe labelling for this molecule: Cl.O=C(CCl)N1CCCC(c2ncc[nH]2)C1 (stereo unspecified)
-0.0106 (inactive)

Given the molecule O=C(CCl)N1CCOC(c2cccc(F)c2)C1 (stereo unspecified) , what is its reported log2 ratio of Biotin-Ahx-Ub-VS probe labelling?
-0.0524 (inactive)

Quick one: log2 ratio of Biotin-Ahx-Ub-VS probe labelling for CC(O)CC1CCN(C(=O)CCl)CC1 (stereo unspecified) ?
-0.0746 (inactive)

Find the recorded log2 ratio of Biotin-Ahx-Ub-VS probe labelling belonging to Cc1ccccc1CN(C)C(=O)CCl and report it.
-0.115 (inactive)

Consider the molecule shown here: Cl.Cn1nccc1C(NC(=O)CCl)c1ccccc1 (stereo unspecified) What is its recorded log2 ratio of Biotin-Ahx-Ub-VS probe labelling?
-0.145 (inactive)

log2 ratio of Biotin-Ahx-Ub-VS probe labelling for O=C(CCl)NCc1ccc2c(c1)OCO2 ?
-0.126 (inactive)
